The reported measurements were obtained from patent US20250101052A1.

Tested on: BaF3-EGFR^del19/T790M/C797S cells
Assay: BaF3 cell proliferation inhibition experiment (CCK-8)
Type: cell-based
Details: Ba/F3 EGFR-Del19/T790M/C797S; cell proliferation, 72 hours; read-out: BaF3-EGFR^del19 /T790M/C797S (IC50 nM)

# Compound, Readout units, IC50
records = [
    ("CCc1cc(Nc2ncc(Cl)c(Nc3ccc(C)c(C)c3P(C)(C)=O)n2)c(OC)cc1N1CCC(N2C[C@H]3CN(C)C[C@H]3C2)CC1 [Compound 52]", "nM", 92.8),
    ("CCc1cc(Nc2ncc(Cl)c(Nc3ccc(C)c(C)c3P(C)(C)=O)n2)c(OC)cc1N1CCC(N2CCN(C)CC2)CC1 [Comparative Compound A, reference compound]", "nM", 66.3),
    ("CCc1cc(Nc2ncc(Cl)c(Nc3ccc(C)c(C)c3P(C)(C)=O)n2)c(OC)cc1N1CCC2(CC1)CC(N1CCCC1)C2 [Compound 48]", "nM", 176),
    ("CCc1cc(Nc2ncc(Cl)c(Nc3cc(C)c(C)cc3P(C)(C)=O)n2)c(OC)cc1N1CCC(N2C[C@@H](C)N(C)[C@@H](C)C2)CC1 [Compound 50]", "nM", 186),
]

----------
Test system: BaF3-EGFR^del19/C797S cells
Assay: BaF3 cell proliferation inhibition experiment (CCK-8)
Type: cell-based
Conditions: Mus musculus, BaF3, 72 h, read-out: BaF3-EGFR^del19 /C797S (IC50 nM)

# Compound, Comparison sign, IC50 / nM
records = [
    ("CCc1cc(Nc2ncc(Cl)c(Nc3ccc(C)c(C)c3P(C)(C)=O)n2)c(OC)cc1N1CCC(N2C[C@H]3CC[C@@H](C2)N3C)CC1 [Compound 51]", "=", 146),
    ("C=CC(=O)Nc1cc(Nc2nccc(-c3cn(C)c4ccccc34)n2)c(OC)cc1N(C)CCN(C)C [AZD9291, reference compound]", ">", 1000),
    ("CCc1cc(Nc2ncc(Cl)c(Nc3ccc(C)c(C)c3P(C)(C)=O)n2)c(OC)cc1N1CC2(CCN(C)CC2)C1 [Compound 24]", "=", 202),
]

----------
Biological target: EGFR^L858R/T790M/C797S kinase (Homo sapiens (Human), UniProt P00533, C797S/L858R/T790M)
Sequence (P00533 25-1210 T790M/C797S/L858R): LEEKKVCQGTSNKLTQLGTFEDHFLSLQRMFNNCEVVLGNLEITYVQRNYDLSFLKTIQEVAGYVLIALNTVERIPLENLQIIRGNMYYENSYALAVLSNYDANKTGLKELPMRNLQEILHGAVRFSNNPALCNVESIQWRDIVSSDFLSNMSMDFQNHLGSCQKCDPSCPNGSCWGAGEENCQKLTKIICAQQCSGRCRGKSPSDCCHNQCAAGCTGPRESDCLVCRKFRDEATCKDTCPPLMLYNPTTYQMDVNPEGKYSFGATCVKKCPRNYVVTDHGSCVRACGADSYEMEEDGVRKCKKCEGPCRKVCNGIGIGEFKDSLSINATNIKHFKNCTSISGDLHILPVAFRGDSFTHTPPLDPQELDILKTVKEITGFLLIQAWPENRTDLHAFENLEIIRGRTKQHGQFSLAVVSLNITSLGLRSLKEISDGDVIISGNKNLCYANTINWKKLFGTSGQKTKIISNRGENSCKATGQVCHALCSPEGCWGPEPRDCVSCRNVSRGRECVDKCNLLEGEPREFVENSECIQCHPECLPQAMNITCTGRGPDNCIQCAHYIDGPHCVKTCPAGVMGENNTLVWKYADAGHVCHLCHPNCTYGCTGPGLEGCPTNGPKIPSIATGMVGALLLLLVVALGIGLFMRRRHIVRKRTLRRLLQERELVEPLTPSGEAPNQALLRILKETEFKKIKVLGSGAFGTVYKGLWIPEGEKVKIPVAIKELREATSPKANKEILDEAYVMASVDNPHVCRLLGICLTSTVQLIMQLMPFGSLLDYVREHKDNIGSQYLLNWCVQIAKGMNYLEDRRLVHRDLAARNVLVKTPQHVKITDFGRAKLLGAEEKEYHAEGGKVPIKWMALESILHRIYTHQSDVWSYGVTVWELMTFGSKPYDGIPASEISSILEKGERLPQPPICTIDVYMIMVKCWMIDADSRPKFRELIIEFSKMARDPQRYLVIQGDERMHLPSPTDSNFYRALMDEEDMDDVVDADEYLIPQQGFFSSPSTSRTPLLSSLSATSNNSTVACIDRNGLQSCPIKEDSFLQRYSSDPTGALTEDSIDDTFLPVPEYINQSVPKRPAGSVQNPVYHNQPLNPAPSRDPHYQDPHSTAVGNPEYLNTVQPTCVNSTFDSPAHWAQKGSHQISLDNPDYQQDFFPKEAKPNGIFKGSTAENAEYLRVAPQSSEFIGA
Experiment: EGFR^L858R/T790M/C797S kinase inhibitory activity experiment
Conditions: in vitro
IC50 for assorted molecules
Assay metric: IC50 (pM)

# Molecule, Reported
rows = [
    ("CCc1cc(Nc2ncc(Cl)c(Nc3ccc(C)c(C)c3P(C)(C)=O)n2)c(OC)cc1N1CCC(N2C[C@H]3CC[C@@H](C2)N3C)CC1", 45.2),
    ("CCc1cc(Nc2ncc(Cl)c(Nc3cc(C)c(C)cc3P(C)(C)=O)n2)c(OC)cc1N1CC2(CCN(CC(F)F)CC2)C1", 740),
    ("COc1cc(N2CC3(CCN(CC(F)F)CC3)C2)c(Cl)cc1Nc1ncc(Cl)c(Nc2cc(C)c(C)cc2P(C)(C)=O)n1", 760),
    ("CCc1cc(Nc2ncc(Cl)c(Nc3cccc(Cl)c3P(C)(C)=O)n2)c(OC)cc1N1CCC2(CC1)CC(N(C)C)C2", 860),
    ("CCc1cc(Nc2ncc(Cl)c(Nc3ccc(C)c(C)c3P(C)(C)=O)n2)c(OC)cc1N1CCC2(CC1)CC(N1CCCC1)C2", 62.9),
    ("CCc1cc(Nc2ncc(Cl)c(Nc3ccc(C)c(C)c3P(C)(C)=O)n2)c(OC)cc1N1CCC(N2CC3CC2CN3C)CC1 (stereo not drawn)", 201),
]

----------
Target: Aurora B (Homo sapiens (Human), UniProt Q96GD4)
Sequence (Q96GD4 whole entry): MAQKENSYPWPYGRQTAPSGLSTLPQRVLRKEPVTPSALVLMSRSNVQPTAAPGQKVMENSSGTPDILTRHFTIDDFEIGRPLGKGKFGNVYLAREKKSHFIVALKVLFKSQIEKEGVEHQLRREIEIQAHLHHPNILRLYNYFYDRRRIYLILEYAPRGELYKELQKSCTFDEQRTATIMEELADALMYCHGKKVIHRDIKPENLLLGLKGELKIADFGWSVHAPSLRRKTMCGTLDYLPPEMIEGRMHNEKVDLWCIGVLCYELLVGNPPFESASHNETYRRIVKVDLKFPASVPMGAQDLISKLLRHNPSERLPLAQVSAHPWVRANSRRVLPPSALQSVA
Experiment: Activity of other kinases: Aurora B (HTRF)
Format: biochemical
Protocol: Embodiment 5 Activity of Other Kinases (1) Preparation of 1×kinase reaction buffer: 1 time the volume of 5×kinase reaction buffer and 4 times the volume of water; 5 mM MgCl2; 1 mM DTT. (2) Screening of Compounds: a) The compound was diluted with DMSO in a dilution plate. b) The compound was diluted 40 times into the 1× kinase reaction buffer and oscillated on an oscillator for 20 minutes. […] j) The fluorescence signals at 615 nm (Cryptate) and 665 nm (XL665) were read using the BGM microplate reader.
Known IC50 of a selection of compounds
Assay metric: IC50 (nM)

# Compound, Assay metric, Reported
records = [
    ("CCc1cc(Nc2ncc(Cl)c(Nc3ccc(C)c(C)c3P(C)(C)=O)n2)c(OC)cc1N1CC2(CCN(C)CC2)C1 [Compound 24]", "IC50", 410),
    ("CCc1cc(Nc2ncc(Cl)c(Nc3ccc(C)c(C)c3P(C)(C)=O)n2)c(OC)cc1N1CCC(N2CCN(C)CC2)CC1 [Comparative Compound A, reference compound]", "IC50", 2010),
]

----------
Target: EGFR^L858R/T790M/C797S kinase (Homo sapiens (Human), UniProt P00533, C797S/L858R/T790M)
Assay: EGFR^L858R/T790M/C797S kinase inhibitory activity experiment
Conditions: in vitro
Assay metric: IC50 (nM)

# Compound string, Reported
rows = [
    ("COc1cc(N2CC3(CCN(C)CC3)C2)c(C)cc1Nc1ncc(Cl)c(Nc2ccc(C)c(C)c2P(C)(C)=O)n1", 0.92),
    ("CCN1CCC2(CC1)CN(c1cc(OC)c(Nc3ncc(Cl)c(Nc4ccc(C)c(C)c4P(C)(C)=O)n3)cc1Cl)C2", 0.68),
    ("CCc1cc(Nc2ncc(Cl)c(Nc3cc(Cl)c(Cl)cc3P(C)(C)=O)n2)c(OC)cc1N1CC2(CCC(CC#N)CC2)C1", 12.1),
    ("CCc1cc(Nc2ncc(Cl)c(Nc3cc(C)c(C)cc3P(C)(C)=O)n2)c(OC)cc1N1CC2(CCC(N(C)C)CC2)C1", 13),
]

----------
Assay: Stability testing of liver microsomes, human
Type: in vitro ADME
Details: pH 7.41; human liver microsomes
Protocol: 1. 100 mM K-buffer was preheated with 5 mM MgCl2 with a pH value of 7.41. 2. Preparation of testing solution 0.5 mM solution A: 5 μL of the 10 mM compound stock solution was added for reference to 95 μL of ACN. 1.5 μM microsome solution (0.75 mg/mL): 1.5 μL of a 500 μM solution and 18.75 μL of 20 mg/mL liver microsomes were added to 479.75 μL of K/Mg-buffer. 3. The K/Mg-buffer NADPH solution (6 mM, 5 mg/mL) was prepared. 4. […]

# Molecule, Comparison sign, CLint scaled at 1 µM, mL/min/kg
rows = [
    ("CCc1cc(Nc2ncc(Cl)c(Nc3ccc(C)c(C)c3P(C)(C)=O)n2)c(OC)cc1N1CCC(N2CCN(C)CC2)CC1 [Comparative Compound A, reference compound]", "=", 49.8),
    ("CCc1cc(Nc2ncc(Cl)c(Nc3ccc(C)c(C)c3P(C)(C)=O)n2)c(OC)cc1N1CC2(CCN(C)CC2)C1 [Compound 24]", "<", 9.6),
]

----------
Assay: Stability testing of liver microsomes, human
Format: in vitro ADME
Conditions: pH 7.41; human liver microsomes
Assay metric: half-life at 1 µM (min)

# Compound, Comparison sign, Reported
rows = [
    ("CCc1cc(Nc2ncc(Cl)c(Nc3ccc(C)c(C)c3P(C)(C)=O)n2)c(OC)cc1N1CCC(N2CCN(C)CC2)CC1 [Comparative Compound A, reference compound]", "=", 27.8),
    ("CCc1cc(Nc2ncc(Cl)c(Nc3ccc(C)c(C)c3P(C)(C)=O)n2)c(OC)cc1N1CC2(CCN(C)CC2)C1 [Compound 24]", ">", 145),
]

----------
Test: Stability testing of liver microsomes, mouse
Type: in vitro ADME
Settings: pH 7.41; mouse liver microsomes
Property: half-life at 1 µM; scope: individual molecules
Assay metric: half-life at 1 µM (h)

# Molecule, Assay metric, Comparison sign, Reported
data = [
    ("CCc1cc(Nc2ncc(Cl)c(Nc3ccc(C)c(C)c3P(C)(C)=O)n2)c(OC)cc1N1CC2(CCN(C)CC2)C1 [Compound 24]", "half-life at 1 µM", ">", 2.42),
    ("CCc1cc(Nc2ncc(Cl)c(Nc3ccc(C)c(C)c3P(C)(C)=O)n2)c(OC)cc1N1CCC(N2CCN(C)CC2)CC1 [Comparative Compound A, reference compound]", "half-life at 1 µM", "=", 1.27),
]

----------
This section presents molecules with their documented pIC50 values.
Molecular target: EGFR^L858R/T790M/C797S kinase (Homo sapiens (Human), UniProt P00533, C797S/L858R/T790M)
Assay: EGFR^L858R/T790M/C797S kinase inhibitory activity experiment
Settings: in vitro
pIC50: −log10 of the molar value.
Assay metric: pIC50

# Compound string, Assay metric, Reported
rows = [
    ("COc1cc(N2CCC3(CC2)CC(N(C)C)C3)c(F)cc1Nc1ncc(Cl)c(Nc2ccc(C)c(C)c2P(C)(C)=O)n1", "pIC50", 8.00),
    ("CCc1cc(Nc2ncc(Cl)c(Nc3cc(C(F)(F)F)ccc3P(C)(C)=O)n2)c(OC)cc1N1CCC2(CC1)CC(N(C)C)C2", "pIC50", 7.54),
    ("CCc1cc(Nc2ncc(Cl)c(Nc3ccc(C)c(C)c3P(C)(C)=O)n2)c(OC)cc1N1CCC2(CC1)CC(N1CC(C#N)C1)C2", "pIC50", 8.08),
    ("COc1cc(N2CCC(N3CCN(C)CC3)CC2)c(C)cc1Nc1ncc(Cl)c(Nc2cc(C)c(C)cc2P(C)(C)=O)n1", "pIC50", 8.28),
]
